Test system: HLA-A*24
Experiment: MHC binding assay, UV-ligand exchange with beta2m ELISA, HLA-A*24
Set-up: species or system human
Settings: binding to HLA-A*24 ranged by peptide exchange yield (UV-ligand exchange, beta2m ELISA)
valueType: Peptide exchange

## Input // Peptide exchange lookup, key: 299 (KYQYVLNEF; listed as Homo sapiens) [compound 299]
## Output +++ (50%-75% = +++)

## Input Quick one: Peptide exchange of 360 (VFSPDGHLF; listed as Homo sapiens) [compound 360] ?
## Output +++ (50%-75% = +++)

## Input Which Peptide exchange is listed for 300 (TYPSQLPSL; listed as Homo sapiens) [compound 300] ?
## Output +++ (50%-75% = +++)

* * *

Test system: HLA-A*24
Test: MHC binding assay, UV-ligand exchange with beta2m ELISA, HLA-A*24
Parameters: species or system human
Settings: binding to HLA-A*24 ranged by peptide exchange yield (UV-ligand exchange, beta2m ELISA)
valueType: Peptide exchange

## Input For the record 307 (GYAFTLPLF; listed as Homo sapiens) [compound 307] , what value of Peptide exchange is listed for HLA-A*24?
## Output +++ (50%-75% = +++)

## Input Item 137 (EYLHNCSYF; listed as Homo sapiens) [compound 137] with HLA-A*24 - Peptide exchange?
## Output ++++ (>=75% = ++++)

## Input Enter reported Peptide exchange observed with HLA-A*24 for 341 (SYLTQHQRI; listed as Homo sapiens) [compound 341]
## Output +++ (50%-75% = +++)

## Input For HLA-A*24, provide Peptide exchange of 319 (KYSDVKNLI; listed as Homo sapiens) [compound 319] please.
## Output ++++ (>=75% = ++++)

For each listed entry, give its Peptide exchange.
1. 230 (TYGMVMVTF; listed as Homo sapiens) [compound 230]
2. 384 (RYFDVGLHNF; listed as Homo sapiens) [compound 384]
3. 258 (AYAQLGYLL; listed as Homo sapiens) [compound 258]
4. 232 (YYLSDSPLL; listed as Homo sapiens) [compound 232]
5. 195 (AYIKGGWIL; listed as Homo sapiens) [compound 195]

## Output
1. +++ (50%-75% = +++)
2. +++ (50%-75% = +++)
3. +++ (50%-75% = +++)
4. +++ (50%-75% = +++)
5. +++ (50%-75% = +++)

* * *

Molecular target: HLA-A*02 (Homo sapiens, UniProt P04439, D140Y/D185E/D98H/E176V/E277Q/G131W/G231S/I119V/I121R/I166T/I218V/L300P/N151K/N90K/P208A/P217A/Q86G/Q94H/R138H/R169H)
Experiment: MHC binding assay, UV-ligand exchange with beta2m ELISA, HLA-A*02
Details: binding to HLA-A*02 ranged by peptide exchange yield (UV-ligand exchange, beta2m ELISA)
valueType: Peptide exchange

## Input So what's the measured Peptide exchange for this one? 327 (SIGDIFLKY; listed as Homo sapiens) [compound 327]
## Output +++ (50%-75% = +++)

## Input Could you share which Peptide exchange value was measured for 334 (GRADALRVL; listed as Homo sapiens) [compound 334] ?
## Output +++ (50%-75% = +++)

## Input What value of Peptide exchange has been recorded for this entry: 337 (KVLGKIEKV; listed as Homo sapiens) [compound 337]
## Output +++ (50%-75% = +++)
